# target.entity: Ba/F3 De119/T790M/C797S EGFR triple mutant cell line (Homo sapiens, UniProt P00533, T790M/C797S, cells depend on it, form not given)
# Sequence (P00533 with tags, fused parts or gaps DEL746-750/T790M/C797S, form open): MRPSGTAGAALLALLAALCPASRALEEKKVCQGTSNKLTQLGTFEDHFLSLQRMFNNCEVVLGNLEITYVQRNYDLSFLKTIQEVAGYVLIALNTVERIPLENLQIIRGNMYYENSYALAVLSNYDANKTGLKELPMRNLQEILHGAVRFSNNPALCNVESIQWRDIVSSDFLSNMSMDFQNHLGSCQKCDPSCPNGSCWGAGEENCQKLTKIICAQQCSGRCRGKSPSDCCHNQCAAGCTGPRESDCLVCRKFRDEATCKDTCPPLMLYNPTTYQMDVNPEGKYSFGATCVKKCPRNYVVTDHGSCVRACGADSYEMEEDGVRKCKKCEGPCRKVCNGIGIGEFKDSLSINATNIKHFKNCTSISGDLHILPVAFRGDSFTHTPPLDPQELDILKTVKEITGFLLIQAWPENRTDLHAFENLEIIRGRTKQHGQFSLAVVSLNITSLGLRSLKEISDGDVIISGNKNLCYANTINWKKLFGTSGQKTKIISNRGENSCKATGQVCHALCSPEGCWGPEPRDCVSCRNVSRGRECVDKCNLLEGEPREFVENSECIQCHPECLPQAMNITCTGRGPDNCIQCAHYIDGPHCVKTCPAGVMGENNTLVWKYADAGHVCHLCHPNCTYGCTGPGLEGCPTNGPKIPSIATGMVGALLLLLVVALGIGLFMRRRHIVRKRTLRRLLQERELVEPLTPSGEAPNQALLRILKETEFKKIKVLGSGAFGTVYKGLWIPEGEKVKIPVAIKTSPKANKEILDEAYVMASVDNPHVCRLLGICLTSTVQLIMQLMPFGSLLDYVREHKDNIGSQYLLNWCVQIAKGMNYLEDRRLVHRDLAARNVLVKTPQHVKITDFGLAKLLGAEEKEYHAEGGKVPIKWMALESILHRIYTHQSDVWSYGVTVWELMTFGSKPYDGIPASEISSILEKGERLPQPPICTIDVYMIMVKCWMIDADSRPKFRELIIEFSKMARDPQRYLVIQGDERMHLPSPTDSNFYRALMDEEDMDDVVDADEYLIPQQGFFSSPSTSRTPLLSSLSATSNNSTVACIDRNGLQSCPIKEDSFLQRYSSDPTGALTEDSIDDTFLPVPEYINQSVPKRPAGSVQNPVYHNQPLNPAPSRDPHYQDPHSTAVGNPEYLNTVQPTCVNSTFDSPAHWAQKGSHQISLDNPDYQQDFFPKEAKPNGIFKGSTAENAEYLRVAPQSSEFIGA
# experiment: Cell proliferation inhibition experiment (CellTiter-Glo), Ba/F3 De119/T790M/C797S
# Format: cell-based
# test.context: Ba/F3 Del19/T790M/C797S EGFR triple mutant cells, 72 hours, Cell Titer-Glo; read-out: Ba/F3 (Del19/T790M/C797S) IC50
measure: GI50 (nM)

COc1cc(N2CCOCC2)c(-c2cnn(C)c2)cc1Nc1ncc(Br)c(Nc2cc3c(cc2P(C)(C)=O)CC3)n1 : 9.89

I = COc1cc(N2CCN(CCO)CC2)c(-c2cnn(C)c2)cc1Nc1ncc(Br)c(Nc2ccc3nccnc3c2P(C)(C)=O)n1
II = COc1cc(N2CCOCC2)c(-c2cnn(C)c2)nc1Nc1ncc(C)c(Nc2ccc3nccnc3c2P(C)(C)=O)n1
III = COc1cc(N2CCOCC2)c(-c2cnn(C)c2)cc1Nc1ncc(C2CC2)c(Nc2ccc3nccnc3c2P(C)(C)=O)n1
Form: Sort by [GI50] Order [ ascending ] Would you mind listing the labels in the order asked for? III, I, II
(III: 8.64 nM, I: 40.6 nM, II: 99.4 nM)

From: patent US20230219986A1
